Tested on: cancer stem cells
method: Survival rate of cancer stem cells after test compound is added (flow cytometry, Annexin V-FITC/PI, clinical specimen)
Assay type: cell-based, patient
condition info: Homo sapiens, 18 h, Brain tumor; 10.0 μM
endpoint label: viability at 10 µM (%)
Answers are plain numbers, in %.

Here is how some compounds turned out for viability at 10 µM.
{"columns": ["compound", "viability at 10 µM [%]"],
 "data": [
  ["C=C1C(=O)O[C@H]2[C@H]1CCC(C)=C1CC[C@@](C)(OC(=O)CCCc3cn(CCCCCCO)nn3)[C@@H]12", 65],
  ["C=C1C(=O)O[C@@H]2[C@@H]3[C@@H](CC[C@@]3(C)O)[C@](C)(O)CC[C@@H]12", 83],
  ["CC1=C2CC[C@@](C)(O)[C@@H]2[C@H]2OC(=O)[C@@H](CN(C)C)[C@@H]2CC1", 85],
  ["C=C1C(=O)O[C@@H]2[C@H]3C(C)=CC[C@@]34O[C@@]4(C)CC[C@@H]12", 62],
  ["C=C1C(=O)O[C@H]2[C@H]1CC[C@]1(C)O[C@@]13CC[C@@](C)(O)[C@H]23", 66],
  ["C=C1CC[C@H]2C(=C)CC[C@H]3C(=C)C(=O)O[C@@H]3[C@@H]12", 72]
]}

Give one value of viability at 10 µM per listed compound.
1. C=C1C(=O)O[C@@H]2[C@@H]3[C@@H](CCC34CC4)C3(CC[C@@H]12)CC3
2. CCOC(=O)[C@@H]1CCCN1C[C@@H]1C(=O)O[C@H]2[C@H]1CCC1(CC1)[C@@H]1CCC3(CC3)[C@H]21
3. [2H][C@@]1(CN(C)C)C(=O)O[C@@H]2[C@@H]3[C@@H](CCC34CC4)C3(CC[C@H]21)CC3
4. C=C1C(=O)O[C@@H]2[C@@H]3[C@@H](CC[C@@]3(C)O)C(=C)CC[C@@H]12
5. C=C1C(=O)O[C@H]2[C@H]1CC[C@@](C)(OC)C1CC[C@@](C)(O)[C@@H]12 (stereo partly shown)

1: 84; 2: 87; 3: 88; 4: 66; 5: 81

* * *

So I've got a bunch of molecules here, and I need their viability at 10 µM values.
Tested on: cancer stem cells
method: Survival rate of cancer stem cells after test compound is added (flow cytometry, Annexin V-FITC/PI, clinical specimen)
Format: cell-based, patient
condition info: Homo sapiens, 18 h, AML; 10.0 μM
Report as: number unit

Guide cases for viability at 10 µM, answers given:
{"columns": ["chemical string", "measured on", "viability at 10 µM"],
 "data": [
  ["C=C1C(=O)O[C@@H]2[C@@H]3[C@@H](CC[C@@]3(C)O)[C@](C)(O)CC[C@@H]12", "cancer stem cells", "85%"],
  ["C=C1C(=O)O[C@H]2[C@H]1CC[C@]1(C)O[C@@]13CC[C@@](C)(O)[C@H]23", "cancer stem cells", "48%"],
  ["C=C1C(=O)O[C@H]2[C@H]1CCC(C)=C1CC[C@@](C)(OC(=O)CCCc3cn(CCCCCCO)nn3)[C@@H]12", "cancer stem cells", "66%"]
]}

Proceed to the following item.
So what viability at 10 µM did C=C1C(=O)O[C@@H]2[C@@H]3[C@@H](CCC34CC4)C3(CC[C@@H]12)CC3 get with cancer stem cells?
86%

* * *

Test system: cancer cells
method: Survival rate of cancer cells after test compound is added (flow cytometry, Annexin V-FITC/PI, clinical specimen)
Type: cell-based, patient
condition info: Homo sapiens, 18 h, Brain glioma; 10.0 μM; read-out: Survival rate (%) All cells (Stem cells and ordinary cells)
endpoint label: viability at 10 µM (%)
Give bare numbers, in %.

# example entries with known answers
{"columns": ["compound", "recorded measurement"],
 "data": [
  ["C=C1C(=O)O[C@@H]2[C@@H]3[C@@H](CCC34CC4)C3(CC[C@@H]12)CC3", 88],
  ["C=C1CC[C@H]2C(=C)CC[C@H]3C(=C)C(=O)O[C@@H]3[C@@H]12", 74],
  ["CC1=C2CC[C@@](C)(O)[C@@H]2[C@H]2OC(=O)[C@@H](CN(C)C)[C@@H]2CC1", 88],
  ["C=C1C(=O)O[C@@H]2[C@@H]3[C@@H](CC[C@@]3(C)O)[C@](C)(O)CC[C@@H]12", 88],
  ["C=C1C(=O)O[C@@H]2[C@H]3C(C)=CC[C@@]34O[C@@]4(C)CC[C@@H]12", 74]
]}

For the 4 compounds below, give their viability at 10 µM values.
1. C=C1C(=O)O[C@H]2[C@H]1CCC(C)=C1CC[C@@](C)(OC(=O)CCCc3cn(CCCCCCO)nn3)[C@@H]12
2. C=C1C(=O)O[C@@H]2[C@@H]3[C@@H](CC[C@@]3(C)O)C(=C)CC[C@@H]12
3. C=C1C(=O)O[C@H]2[C@H]1CC[C@]1(C)O[C@@]13CC[C@@](C)(O)[C@H]23
4. [2H][C@@]1(CN(C)C)C(=O)O[C@@H]2[C@@H]3[C@@H](CCC34CC4)C3(CC[C@H]21)CC3

1. 79
2. 66
3. 65
4. 91

Field: viability at 10 µM. Fill in for each record below.
1. CCOC(=O)[C@@H]1CCCN1C[C@@H]1C(=O)O[C@H]2[C@H]1CCC1(CC1)[C@@H]1CCC3(CC3)[C@H]21
2. C=C1C(=O)O[C@H]2[C@H]1CC[C@@](C)(OC)C1CC[C@@](C)(O)[C@@H]12 (stereo partly shown)

89
93

* * *

Test system: cancer cells
method: Survival rate of cancer cells after test compound is added (flow cytometry, Annexin V-FITC/PI, clinical specimen)
Format: cell-based, patient
condition info: Homo sapiens, 18 h, Children hepatoblastoma; 20.0 μM; read-out: Survival rate (%) All cells (Stem cells and ordinary cells)
Source text: […]
endpoint label: viability at 20 µM

// worked examples, viability at 20 µM included
{"columns": ["compound", "viability at 20 µM"],
 "data": [
  ["C=C1C(=O)O[C@@H]2[C@@H]3[C@@H](CC[C@@]3(C)O)C(=C)CC[C@@H]12", "68%"],
  ["C=C1C(=O)O[C@@H]2[C@@H]3[C@@H](CC[C@@]3(C)O)[C@](C)(O)CC[C@@H]12", "92%"],
  ["[2H][C@@]1(CN(C)C)C(=O)O[C@@H]2[C@@H]3[C@@H](CCC34CC4)C3(CC[C@H]21)CC3", "88%"]
]}

Now, please, on to the next compound.
GET /values?readout=viability at 20 µM&item= C=C1C(=O)O[C@H]2[C@H]1CC[C@@](C)(OC)C1CC[C@@](C)(O)[C@@H]12 (stereo partly drawn)
85%

* * *

Hi there, I'd appreciate the recorded viability at 20 µM for every entry that follows.
System: cancer stem cells
method: Survival rate of cancer stem cells after test compound is added (flow cytometry, Annexin V-FITC/PI, clinical specimen)
Assay type: cell-based, patient
condition info: Homo sapiens, 18 h, Gastrointestinal tumor; 20.0 μM
Field: value (include unit after the number)

Below, each entry is followed by its recorded viability at 20 µM result.
{"columns": ["compound", "viability at 20 µM"],
 "data": [
  ["C=C1C(=O)O[C@@H]2[C@H]3C(C)=CC[C@@]34O[C@@]4(C)CC[C@@H]12", "44%"],
  ["C=C1C(=O)O[C@H]2[C@H]1CC[C@@](C)(OC)C1CC[C@@](C)(O)[C@@H]12 (stereo partly shown)", "74%"],
  ["C=C1CC[C@H]2C(=C)CC[C@H]3C(=C)C(=O)O[C@@H]3[C@@H]12", "44%"],
  ["C=C1C(=O)O[C@H]2[C@H]1CC[C@]1(C)O[C@@]13CC[C@@](C)(O)[C@H]23", "51%"],
  ["C=C1C(=O)O[C@@H]2[C@@H]3[C@@H](CC[C@@]3(C)O)[C@](C)(O)CC[C@@H]12", "77%"]
]}

Below is a list of compounds. For each, state its recorded viability at 20 µM.
1. CN(C)C[C@@H]1C(=O)O[C@H]2[C@H]1CCC1(CC1)[C@@H]1CCC3(CC3)[C@H]21
2. C=C1C(=O)O[C@H]2[C@H]1CCC(C)=C1CC[C@@](C)(OC(=O)CCCc3cn(CCCCCCO)nn3)[C@@H]12

["77%", "46%"]

* * *

Test system: cancer stem cells
method: Survival rate of cancer stem cells after test compound is added (flow cytometry, Annexin V-FITC/PI, clinical specimen)
Assay type: cell-based, patient
condition info: Homo sapiens, 18 h, Colorectal cancer; 20.0 μM
endpoint label: viability at 20 µM

Worked examples, 5 compounds total:
{"columns": ["compound", "measured on", "viability at 20 µM"],
 "data": [
  ["C=C1C(=O)O[C@@H]2[C@@H]3[C@@H](CC[C@@]3(C)O)[C@](C)(O)CC[C@@H]12 [Compound 49]", "cancer stem cells", "74%"],
  ["[2H][C@@]1(CN(C)C)C(=O)O[C@@H]2[C@@H]3[C@@H](CCC34CC4)C3(CC[C@H]21)CC3 [Compound 46]", "cancer stem cells", "78%"],
  ["C=C1C(=O)O[C@H]2[C@H]1CC[C@]1(C)O[C@@]13CC[C@@](C)(O)[C@H]23 [Compound 24]", "cancer stem cells", "55%"],
  ["CN(C)C[C@@H]1C(=O)O[C@H]2[C@H]1CCC1(CC1)[C@@H]1CCC3(CC3)[C@H]21 [Compound 27]", "cancer stem cells", "79%"],
  ["C=C1C(=O)O[C@@H]2[C@@H]3[C@@H](CC[C@@]3(C)O)C(=C)CC[C@@H]12 [Compound 48]", "cancer stem cells", "55%"]
]}

Would you kindly look at the next entry?
What viability at 20 µM appears in the records for this compound with cancer stem cells? C=C1C(=O)O[C@H]2[C@H]1CC[C@@](C)(OC)C1CC[C@@](C)(O)[C@@H]12 (stereo partly drawn) [Compound 47]
72%
